Kindly state IC50 for each of the entries shown.
- TESTED_TARGET: adenosine A2A receptor (Homo sapiens (Human), UniProt P29274)
- Sequence (P29274 whole entry): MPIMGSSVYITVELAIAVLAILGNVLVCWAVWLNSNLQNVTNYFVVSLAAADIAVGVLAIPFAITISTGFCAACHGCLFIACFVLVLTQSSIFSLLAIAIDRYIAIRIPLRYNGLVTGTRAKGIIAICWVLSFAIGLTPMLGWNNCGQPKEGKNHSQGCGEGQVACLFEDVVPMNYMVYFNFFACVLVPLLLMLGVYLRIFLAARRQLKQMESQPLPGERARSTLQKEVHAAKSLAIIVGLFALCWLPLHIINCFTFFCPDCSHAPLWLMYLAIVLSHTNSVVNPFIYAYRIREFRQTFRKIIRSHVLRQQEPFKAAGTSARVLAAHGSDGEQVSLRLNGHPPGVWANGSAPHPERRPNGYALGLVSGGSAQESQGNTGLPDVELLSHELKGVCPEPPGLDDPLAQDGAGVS
- PROTOCOL_SUMMARY: Adenosine receptor activity assay (Table 1), A2A activity
- Type: biochemical
- PROTOCOL_CONDITIONS: read-out: Ave A2A cAMP IC50

Ask: Fill in the recorded IC50 for this compound, with adenosine A2A receptor (Homo sapiens (Human), UniProt P29274) as test system: C[C@H](Nc1nc(C(=O)NCCc2ccc(CO)cc2)c2sccc2n1)c1cncc(F)c1
Result: 100 to 500 nM

Ask: Fill in the recorded IC50 for this compound, with adenosine A2A receptor (Homo sapiens (Human), UniProt P29274) as test system: COc1ccc(NC(=O)c2nc(N[C@@H](C)c3ccccn3)nc3ccsc23)cn1
Result: > 500 nM

Ask: Fill in the recorded IC50 for this compound, with adenosine A2A receptor (Homo sapiens (Human), UniProt P29274) as test system: C[C@H](Nc1nc(C(=O)NC[C@@H](C)O)c2sccc2n1)c1cncc(F)c1
Result: 50 to 100 nM

Ask: Fill in the recorded IC50 for this compound, with adenosine A2A receptor (Homo sapiens (Human), UniProt P29274) as test system: C[C@H](Nc1nc(C(=O)N2CCC[C@H]2C)c2sccc2n1)c1cccnc1
Result: > 500 nM

Ask: Fill in the recorded IC50 for this compound, with adenosine A2A receptor (Homo sapiens (Human), UniProt P29274) as test system: Cc1cc2nc(N[C@@H](C)c3ccccn3)nc(C(=O)N3CCC3)c2s1
Result: 50 to 100 nM

Ask: Fill in the recorded IC50 for this compound, with adenosine A2A receptor (Homo sapiens (Human), UniProt P29274) as test system: COc1ccc([C@H](C)Nc2nc(C(=O)NCc3ccccn3)c3sccc3n2)cc1
Result: 10 to 50 nM

Ask: Fill in the recorded IC50 for this compound, with adenosine A2A receptor (Homo sapiens (Human), UniProt P29274) as test system: C[C@H](Nc1nc(C(=O)N2CC[C@@H](O)C2)c2sccc2n1)c1ccnc(F)c1
Result: > 500 nM

Ask: Fill in the recorded IC50 for this compound, with adenosine A2A receptor (Homo sapiens (Human), UniProt P29274) as test system: CO[C@H]1CCN(C(=O)c2nc(N[C@@H](C)c3cccnc3)nc3cc(C)sc23)C1
Result: 100 to 500 nM

Ask: Fill in the recorded IC50 for this compound, with adenosine A2A receptor (Homo sapiens (Human), UniProt P29274) as test system: Cc1cc2nc(N[C@@H](C)c3ccccn3)nc(C(=O)N3CC(CNC(=O)C(C)(C)C)C3)c2s1
Result: > 500 nM

Ask: Fill in the recorded IC50 for this compound, with adenosine A2A receptor (Homo sapiens (Human), UniProt P29274) as test system: Cc1cc2nc(N[C@@H](C)c3cccnc3)nc(C(=O)N3CCC3)c2s1
Result: 100 to 500 nM

Ask: Fill in the recorded IC50 for this compound, with adenosine A2A receptor (Homo sapiens (Human), UniProt P29274) as test system: Cc1cc2nc(N[C@@H](C)c3cncc(F)c3)nc(C(=O)N3CC[C@H](CO)C3)c2s1
Result: 50 to 100 nM

Ask: Fill in the recorded IC50 for this compound, with adenosine A2A receptor (Homo sapiens (Human), UniProt P29274) as test system: C[C@H](Nc1nc(C(=O)N2CC[C@@H](CO)C2)c2sccc2n1)c1cncc(F)c1
Result: 100 to 500 nM

Ask: Fill in the recorded IC50 for this compound, with adenosine A2A receptor (Homo sapiens (Human), UniProt P29274) as test system: C[C@H](Nc1nc(C(=O)NCC2CCOCC2)c2sccc2n1)c1ccccn1
Result: 100 to 500 nM

Ask: Fill in the recorded IC50 for this compound, with adenosine A2A receptor (Homo sapiens (Human), UniProt P29274) as test system: C[C@H](Nc1nc(C(=O)N2CC[C@H](F)C2)c2sccc2n1)c1cccnc1
Result: 50 to 100 nM

Ask: Fill in the recorded IC50 for this compound, with adenosine A2A receptor (Homo sapiens (Human), UniProt P29274) as test system: C[C@H](Nc1nc(C(=O)N2CC[C@H](N)C2)c2sccc2n1)c1cccnc1
Result: > 500 nM

Ask: Fill in the recorded IC50 for this compound, with adenosine A2A receptor (Homo sapiens (Human), UniProt P29274) as test system: Cc1cc2nc(N[C@@H](C)c3cncc(F)c3)nc(C(=O)N3CC(N)C3)c2s1
Result: > 500 nM

Ask: Fill in the recorded IC50 for this compound, with adenosine A2A receptor (Homo sapiens (Human), UniProt P29274) as test system: C[C@H](Nc1nc(C(=O)N2CCC(F)(F)C2)c2sccc2n1)c1cccnc1
Result: 100 to 500 nM
